Quick reference: TGI of the listed items.
Test system: UACC-62 melanoma
Test: NCI tumour cell line growth inhibition, 48 h
property: TGI

O=C1C=CC(=O)c2nc3c(cc21)CCC3 :: 33 µM
O=S(=O)(N/N=C/c1cccc(/C=N/NS(=O)(=O)c2ccccc2)c1)c1ccccc1 :: > 100 µM
N[C@@H]1CCCC[C@@H]1N.O=P([O-])([O-])CN(CCN(CP(=O)([O-])[O-])CP(=O)([O-])[O-])CP(=O)([O-])[O-].[Pt+2] :: > 25 µM
CCn1c(-c2nonc2N)nc2c(C#CC(C)(C)O)nc(OC[C@@H](N)c3ccccc3)cc21 :: 8.79 µM
COc1ccc2nc(NC(=O)CSc3nnc4n3S(=O)(=O)c3ccccc3N4c3ccccc3)sc2c1 :: > 100 µM
Cc1ccc(NC(=O)c2ccc(OP(=O)(O)Nc3ccc(C)cc3)cc2)cc1 :: > 100 µM
CCOC(=O)Nc1sc2c(c1C#N)CCCC2 :: > 100 µM
CC(C)c1cc2c(cc1S(=O)(=O)O)[C@@]1(C)CCC[C@@](C)(C(=O)O)C1CC2 (stereo not given in full) :: > 100 µM
CCc1c(OC(C)=O)c2c(NC3OCC(OC(C)=O)C(OC(C)=O)C3OC(C)=O)nc(SC)nc2oc1=O (stereo not given) :: > 100 µM
CN(C)CC1CC/C(=C\c2ccc(O)cc2)C1=O (stereo not given) :: 15.5 µM
N#C/C(=C\c1cccc(Cl)c1Cl)c1ccccc1 :: > 100 µM
CCOC(=S)SCC(=O)O :: > 100 µM
C[C@]12CC[C@H](O)CC1=CC[C@@H]1[C@@H]2CC[C@]2(C)C(=N/N)/C(=N\O)C[C@@H]12 :: > 100 µM
CCCCCCCCCCCCC(O)c1ccc(C#CCCCCCCCCCO)o1 (stereo not given) :: 40.3 µM
C/C(CCn1[nH]c(=O)ccc1=O)=N\NC(=O)C(=O)NN :: > 100 µM
COC(=O)C(CCCN1C(=O)c2ccccc2C1=O)C(=O)OC :: > 100 µM
O=C1NC(=NC(CO)Cc2ccccc2)S/C1=C\c1ccc2ncccc2c1 (stereo not given) :: > 25 µM
CCOC(=O)N1CCN(Cc2cc(=O)n3ccc(C)cc3n2)CC1 :: > 100 µM
COc1ccc(-n2c(C)nc3ccc(NC(=S)Nc4ccccc4)cc3c2=O)cc1 :: > 100 µM
O=C1c2cc3c(cc2-c2c1c1ccc(F)cc1c(=O)n2C[C@H](O)[C@@H](O)[C@H](O)CO)OCO3 :: 0.123 µM
O=[N+]([O-])c1ccc2[nH]nc(OCc3ccccc3Cl)c2c1 :: 88.8 µM
O=C(/C=C/c1ccc2c(c1)OCO2)c1ccc(O)cc1 :: 33 µM
N#CC(Cc1ccccc1)N(CCC1=CCCCC1)C(c1ccccc1)c1ccccc1 (stereo not given) :: > 100 µM
CC(=O)Nc1nc(NC(C)=O)c2[nH]c(CO)nc2n1 :: > 100 µM
COc1cc(-c2ccc3cc(OC)c(OC)c(OC)c3c2)cc(OC)c1OC :: > 100 µM
N#Cc1c[nH]n2c(N=Nc3ccc(Cl)cc3)c(O)nc12 :: 57 µM
O=C(C1OC1c1ccc(Br)cc1O)C12CC3CC(CC(C3)C1)C2 (stereo not given) :: 40.6 µM
CCN(Cc1ccc(F)cc1)c1cc(Cl)c(CO)c(Cl)c1 :: 17.9 µM
Oc1ccccc1CNCc1nc2ccccc2[nH]1 :: > 100 µM
Cn1c(=O)c2c(nc3n2CC(C(=O)O)N3)n(C)c1=O (stereo not given) :: > 100 µM
